Can you tell me Ki for the items I'm about to list?
PROTOCOL DETAILS: Noncompetitive inhibition of CcrA using cezafolin as substrate incubated for 30 mins prior to substrate addition by Lineweaver-burk plot analysis
Answer format: numeric, µM implied, no suffix.

-- ask Param item = S=c1[nH]nc(-c2ccncc2)s1 ; retrieve measured Ki.
-- reply 5.9

-- ask Param item = Sc1nnc(-c2ccccn2)s1 ; retrieve measured Ki.
-- reply 5.4

* * *

PROTOCOL DETAILS: Competitive inhibition of ImiS using imipenem as substrate incubated for 30 mins prior to substrate addition by Lineweaver-burk plot analysis
OBSERVABLE: Ki (µM)
Answer format: numeric, µM implied, no suffix.

-- ask Param item = O=C(O)C1CSC(C(=O)O)N1 (stereo unspecified) [TIDIACIC] ; retrieve measured Ki.
-- reply 7.1

* * *

PROTOCOL DETAILS: Noncompetitive inhibition of ImiS using imipenem as substrate incubated for 30 mins prior to substrate addition by Lineweaver-burk plot analysis
OBSERVABLE: Ki

-- ask Param item = Sc1nnc(-c2ccccn2)s1 ; retrieve measured Ki.
-- reply 3.5 µM

-- ask Param item = S=c1[nH]nc(-c2ccncc2)s1 ; retrieve measured Ki.
-- reply 6.8 µM

* * *

Test system: Escherichia coli BL21(DE3)
PROTOCOL DETAILS: Inhibition of CcrA in Escherichia coli BL21(DE3) assessed as reduction in cefazolin MIC for after 24 hrs by macrobroth dilution assay
The source made the active and inactive calls. The calls are words filed in the database; no cut-off is given here.
OBSERVABLE: Activity

Please review the following examples before continuing.
1. O=C(O)C1CCC(C(=O)O)N1 (configuration not stated); Active
2. Sc1nnc(-c2ccncc2)[nH]1; inactive
3. O=C(O)C1COC(C(=O)O)N1 (configuration not stated); Active
4. S=c1[nH]nc(-c2ccncc2)s1; 50%
5. Sc1nnc(-c2ccccn2)s1; 50%

-- ask Please state recorded Activity (tested on Escherichia coli BL21(DE3)) of O=C(O)C1CSC(C(=O)O)N1 (configuration not stated)
-- reply Active

-- ask Please state recorded Activity (tested on Escherichia coli BL21(DE3)) of Sc1nnc(-c2ccccn2)[nH]1
-- reply inactive

* * *

PROTOCOL DETAILS: Competitive inhibition of CcrA using cezafolin as substrate incubated for 30 mins prior to substrate addition by Lineweaver-burk plot analysis
OBSERVABLE: pKi
Here pKi is given on a logarithmic scale as minus log10 of the concentration in mol/L.

-- ask Param item = O=C(O)C1CSC(C(=O)O)N1 (stereo not drawn) [TIDIACIC] ; retrieve measured pKi.
-- reply 6.19

-- ask Param item = O=C(O)C1COC(C(=O)O)N1 (stereo not drawn) ; retrieve measured pKi.
-- reply 5.96

-- ask Param item = O=C(O)C1CCC(C(=O)O)N1 (stereo not drawn) ; retrieve measured pKi.
-- reply 6.14

* * *

Test system: Klebsiella pneumoniae
PROTOCOL DETAILS: Inhibition of metallo-beta-lactamase in Klebsiella pneumoniae ATCC 700603 assessed as reduction in cefazolin MIC after 24 hrs by macrobroth dilution assay
The source made the active and inactive calls. The rule behind the calls is not given here.
The reply should be one of these categories: 1.0 for active, 0.0 for inactive

-- ask Write down the call the test reported for this molecule. Item: S=c1[nH]nc(-c2ccncc2)s1
-- reply 0.0

-- ask Write down the call the test reported for this molecule. Item: Sc1nnc(-c2ccncc2)[nH]1
-- reply 0.0

-- ask Write down the call the test reported for this molecule. Item: O=C(O)C1CCC(C(=O)O)N1 (configuration not stated)
-- reply 1.0

-- ask Write down the call the test reported for this molecule. Item: O=C(O)C1CSC(C(=O)O)N1 (configuration not stated)
-- reply 1.0

-- ask Write down the call the test reported for this molecule. Item: O=C(O)C1COC(C(=O)O)N1 (configuration not stated)
-- reply 1.0

-- ask Write down the call the test reported for this molecule. Item: Sc1nnc(-c2ccccn2)[nH]1
-- reply 0.0

-- ask Write down the call the test reported for this molecule. Item: Sc1nnc(-c2ccccn2)s1
-- reply 0.0

Recorded values, source ChEMBL document CHEMBL2062397.
